- STUDY SYSTEM: human recombinant MAGL (Homo sapiens (Human), UniProt Q99685)
- Sequence (Q99685 whole entry): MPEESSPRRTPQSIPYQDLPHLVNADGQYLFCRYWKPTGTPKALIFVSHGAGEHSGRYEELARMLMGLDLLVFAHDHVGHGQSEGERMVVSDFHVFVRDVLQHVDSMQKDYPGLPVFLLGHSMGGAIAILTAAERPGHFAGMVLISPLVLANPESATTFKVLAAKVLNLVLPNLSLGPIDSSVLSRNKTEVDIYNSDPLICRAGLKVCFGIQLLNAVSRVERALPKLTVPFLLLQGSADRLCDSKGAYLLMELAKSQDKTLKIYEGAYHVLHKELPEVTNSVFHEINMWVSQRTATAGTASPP
- ASSAY SUMMARY: In vitro inhibition of human recombinant MAGL activity (Cayman inhibitor screening kit, 4-nitrophenylacetate hydrolysis)
- Type: biochemical
- ASSAY CONTEXT: human recombinant MAGL; read-out: Inhibition on MAGL activity (IC50)
pIC50: −log10 of the molar value.
Measured pIC50 accompanies every entry in the list below.

COc1cccc(C(c2cccc(OC)c2)N2CCN(C(=O)n3cnc(C#N)n3)CC2)c1: 8.00 to 9.00
Cn1ncc2cc(C(=C3CCN(C(=O)n4nnc5ccccc54)CC3)c3ccc4c(cnn4C)c3)ccc21: 7.00 to 8.00
N#Cc1ccc(C(c2ccc(C#N)cc2)N2CCN(C(=O)n3nnc4cc(C#N)ccc43)CC2)cc1: 8.00 to 9.00

Request: # return recorded pIC50 for entry "COc1ccc(C(c2ccc(OC)cc2)N2CCN(C(=O)n3cnc(C#N)n3)CC2)cc1"
Response: 8.00 to 9.00

Request: Given the compound "N#Cc1ncn(C(=O)N2CC3(CC(=C(c4ccc5c(c4)COCO5)c4ccc5c(c4)COCO5)C3)C2)n1" , write its reported pIC50.
Response: 8.00 to 9.00

Request: Determine from records and report pIC50 for "O=C(On1nnc2cccnc21)N1CCN(C(c2ccc3c(c2)COCO3)c2ccc3c(c2)COCO3)CC1"
Response: < 7.00

###

Reported IC50 is given for each of the following molecules.
- STUDY SYSTEM: human recombinant MAGL (Homo sapiens (Human), UniProt Q99685)
- ASSAY SUMMARY: In vitro inhibition of human recombinant MAGL activity (Cayman inhibitor screening kit, 4-nitrophenylacetate hydrolysis)
- Format: biochemical

N#Cc1ncn(C(=O)N2C3CCC2CC(C(c2ccc4c(c2)COCO4)c2ccc4c(c2)COCO4)C3)n1 (stereo not shown): 0.001 to 0.01 µM
O=C(On1nnc2ccccc21)N1CCN(C(c2ccc3c(c2)COCO3)c2ccc3c(c2)COCO3)CC1: 0.01 to 0.1 µM
N#Cc1ncn(C(=O)N2C3CCC2CC(=C(c2ccc4c(c2)COCO4)c2ccc4c(c2)COCO4)C3)n1: 0.001 to 0.01 µM

# input for lookup
Request: Kindly indicate its recorded IC50. Item: "O=C(Oc1ccc([N+](=O)[O-])cc1)N1CCN(C(c2ccc3c(c2)COCO3)c2ccc3c(c2)COCO3)CC1"
Response: 0.1 to 1 µM

###

- STUDY SYSTEM: human recombinant FAAH (Homo sapiens (Human), UniProt O00519)
- Sequence (O00519 whole entry): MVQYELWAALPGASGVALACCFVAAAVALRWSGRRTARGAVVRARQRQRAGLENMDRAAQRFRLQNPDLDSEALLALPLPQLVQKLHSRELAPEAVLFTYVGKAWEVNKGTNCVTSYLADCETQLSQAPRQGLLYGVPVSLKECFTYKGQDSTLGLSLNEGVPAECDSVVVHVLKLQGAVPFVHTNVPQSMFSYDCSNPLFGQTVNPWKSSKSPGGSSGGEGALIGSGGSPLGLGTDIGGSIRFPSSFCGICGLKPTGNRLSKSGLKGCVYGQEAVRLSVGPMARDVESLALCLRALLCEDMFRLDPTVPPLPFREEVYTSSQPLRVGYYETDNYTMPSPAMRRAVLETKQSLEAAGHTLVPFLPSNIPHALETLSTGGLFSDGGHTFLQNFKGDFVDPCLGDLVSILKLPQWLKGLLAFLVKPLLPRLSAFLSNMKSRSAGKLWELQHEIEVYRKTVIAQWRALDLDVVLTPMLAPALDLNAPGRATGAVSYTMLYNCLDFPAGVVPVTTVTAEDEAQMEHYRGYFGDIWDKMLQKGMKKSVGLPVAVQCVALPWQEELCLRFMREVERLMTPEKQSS
- ASSAY SUMMARY: In vitro inhibition of human recombinant FAAH activity (Cayman FAAH inhibitor screening kit, AMC arachidonoyl amide hydrolysis)
- Format: biochemical
pIC50: −log10 of the molar value.
VALUE KIND: pIC50

Below: 2 compounds and their reported pIC50.
COc1cccc(C(c2cccc(OC)c2)N2CCN(C(=O)n3nnc4cc(C#N)ccc43)CC2)c1 [Example 96]: 5.00 to 6.00
N#Cc1ncn(C(=O)N2CCC(N(c3ccc(C(F)(F)F)cc3)c3ccc4c(c3)OCO4)CC2)n1 [Example 71]: 6.00 to 7.00

Request: Provide measured pIC50 value, entry: O=C(N1CCN(C(c2ccc3c(c2)COCO3)c2ccc3c(c2)COCO3)CC1)n1nnc2cc3c(cc21)OCCO3 [Example 46]
Response: < 5.00

Request: Give the measured pIC50 for N#Cc1cnn(C(=O)N2CCN(C(c3ccc4c(c3)COCO4)c3ccc4c(c3)COCO4)CC2)c1 [Example 24]
Response: 5.00 to 6.00

###

- STUDY SYSTEM: human recombinant FAAH (Homo sapiens (Human), UniProt O00519)
- ASSAY SUMMARY: In vitro inhibition of human recombinant FAAH activity (Cayman FAAH inhibitor screening kit, AMC arachidonoyl amide hydrolysis)
VALUE KIND: IC50

// solved cases for IC50 follow
N#Cc1ccc2c(c1)nnn2C(=O)N1CCC(OC(c2ccc3c(c2)COCO3)c2ccc3c(c2)COCO3)CC1 [Example 57]: 0.1 to 1 µM
N#Cc1ccc2nnn(C(=O)N3CCC(N(c4ccc(F)cc4)c4ccc(F)cc4)CC3)c2c1 [Example 61]: 0.1 to 1 µM
COc1ccc(C(c2ccc(OC)cc2)N2CCN(C(=O)n3cnc(C#N)n3)CC2)cc1 [Example 90]: 1 to 10 µM
O=C(N1CCN(C(c2ccc3c(c2)COCO3)c2ccc3c(c2)COCO3)CC1)n1nnc2c(Cl)cc(C(F)(F)F)cc21 [Example 42]: > 20 µM
N#Cc1ccc(C(c2ccc(C#N)cc2)N2CCN(C(=O)n3nnc4ccc(C#N)cc43)CC2)cc1 [Example 100]: > 50 µM

Request: Note IC50 for the compound shown: O=C(Oc1c(F)c(F)c(F)c(F)c1F)C1CCN(C(c2ccc3c(c2)COCO3)c2ccc3c(c2)COCO3)CC1 [Example 54]
Response: > 50 µM

Request: Tell me IC50 reported for O=C(Oc1ccc([N+](=O)[O-])cc1)N1CCN(C(c2ccc3c(c2)COCO3)c2ccc3c(c2)COCO3)CC1 [Example 4]
Response: > 10 µM

Request: Return IC50 for the following compound: S=C(N1CCN(C(c2ccc3c(c2)COCO3)c2ccc3c(c2)COCO3)CC1)n1cncn1 [Example 21]
Response: > 50 µM

Request: Please list IC50 recorded for the compound N#Cc1ncn(C(=O)N2CCN(C(c3ccc4c(c3)COCO4)c3ccc4c(c3)COCO4)CC2)n1 [Example 36]
Response: > 10 µM

Request: Assign IC50 to the following record: O=C(N1CCN(C(c2ccc3c(c2)COCO3)c2ccc3c(c2)COCO3)CC1)n1nc2ccccn2c1=O [Example 50]
Response: > 50 µM

Request: Look up and report measured IC50 for this entry: O=C(On1nnc2ccccc21)N1CCN(C(c2ccc3c(c2)COCO3)c2ccc3c(c2)COCO3)CC1 [Example 27]
Response: > 10 µM

Request: Tell me measured IC50 for N#Cc1ccc2nnn(C(=O)N3CCC(N(c4cccnc4)c4ccc5c(c4)OCO5)CC3)c2c1 [Example 74] please.
Response: 0.1 to 1 µM

Request: Answer with reported IC50 of N#Cc1ncn(C(=O)N2CC3(CCN(C(c4ccc5c(c4)COCO5)c4ccc5c(c4)COCO5)C3)C2)n1 [Example 84]
Response: 1 to 10 µM

Request: Find the measured IC50 of Cn1ncc2cc(C(c3ccc4c(cnn4C)c3)N3CCN(C(=O)n4cnc(C#N)n4)CC3)ccc21 [Example 111] and report it.
Response: ~10 µM

Request: Name the recorded IC50 of the item O=C(Oc1ccccn1)N1CCN(C(c2ccc3c(c2)COCO3)c2ccc3c(c2)COCO3)CC1 [Example 20] in your answer.
Response: > 50 µM

Request: Quick one: give measured IC50 for COc1cccc(C(c2cccc(OC)c2)N2CCN(C(=O)n3nnc4ccc(C#N)cc43)CC2)c1 [Example 95]
Response: 10 to 50 µM

Request: State, in one line, measured IC50 of COc1ccc(C(c2ccc3c(c2)COCO3)N2CCN(C(=O)n3cnc(C#N)n3)CC2)cn1 (stereo not drawn) [Example 118]
Response: ~10 µM

Request: Query IC50 for O=C(OC(C(F)(F)F)C(F)(F)F)N1CCN(C(c2ccc3c(c2)COCO3)c2ccc3c(c2)COCO3)CC1 [Example 3]
Response: > 50 µM

Request: Using known records, supply IC50 for C=COc1ccc(N(c2ccc(F)cc2)C2CCN(C(=O)n3nnc4ccc(C#N)cc43)CC2)cc1 [Example 76]
Response: 0.1 to 1 µM

###

- STUDY SYSTEM: human recombinant MAGL (Homo sapiens (Human))
- ASSAY SUMMARY: In vitro inhibition of human recombinant MAGL activity (Cayman inhibitor screening kit, 4-nitrophenylacetate hydrolysis)
- Type: biochemical
- ASSAY CONTEXT: human recombinant MAGL; read-out: Inhibition on MAGL activity (IC50)
pIC50: −log10 of the molar value.
Entries and their measured pIC50 follow.

// known answers, use as guide
COc1ccc(C(c2ccc(OC)c(OC)c2)N2CCN(C(=O)n3nnc4ccc(C#N)cc43)CC2)cc1OC: 7.00 to 8.00
COc1ccc(N(c2ccc(F)cc2)C2CCN(C(=O)n3nnc4ccc(C#N)cc43)CC2)cc1: 8.00 to 9.00
O=C(Oc1ccc(F)cc1)N1CCN(C(c2ccc3c(c2)COCO3)c2ccc3c(c2)COCO3)CC1: < 7.00
N#Cc1ncn(C(=O)N2CCC(C(c3ccc4c(c3)COCO4)c3ccc4c(c3)COCO4)CC2)n1: 8.00 to 9.00
COc1ccc(OC(=O)N2CCN(C(c3ccc4c(c3)COCO4)c3ccc4c(c3)COCO4)CC2)cc1: < 7.00

Request: Recall the reported pIC50 of "CN(CCOC(c1ccc2c(c1)COCO2)c1ccc2c(c1)COCO2)C(=O)n1nnc2ccc(C#N)cc21" on human recombinant MAGL (Homo sapiens (Human)) and write it down.
Response: 8.00 to 9.00

Request: Recall the reported pIC50 of "O=C(Oc1ccccn1)N1CCN(C(c2ccc3c(c2)COCO3)c2ccc3c(c2)COCO3)CC1" when tested on human recombinant MAGL (Homo sapiens (Human)).
Response: < 7.00
